Tested on: N140
Assay: qHTS profiling for inhibitors of Plasmodium falciparum proliferation (AID 504749); note: nearly all actives have a fitted effect of over 60% in size
Settings: P. falciparum in erythrocytes, SYBR Green DNA, 72 h; series mostly up to 28.7 µM
Results filed as inconclusive are left out. Activity calls are given as the source filed them. Calls come from the whole dose curve; as a rule, active = well fitted inhibition curve with a large enough effect; inconclusive = small, poorly fitted or top-dose-only effect; inactive = flat fitted curve, though single readings scatter.
# output must be one of YES = active, NO = inactive

Reference set (8 entries):
molecule="OC(CN1CCC(Cc2ccc(F)cc2)CC1)c1ccc(Cl)cc1 (stereo not drawn)" class_assignment=YES
molecule=Cc1[nH]c(=O)c(C#N)cc1-c1ccncc1 class_assignment=NO
molecule="COc1ccc2nc(S(=O)Cc3ncc(C)c(OC)c3C)[nH]c2c1 (stereo not drawn)" class_assignment=NO
molecule=NC[C@H](O)c1ccc(O)c(O)c1 class_assignment=NO
molecule=Cc1oncc1C(=O)Nc1ccc(C(F)(F)F)cc1 class_assignment=NO
molecule=N=c1nc(N2CCCCC2)cc(N)n1O class_assignment=NO
molecule=Clc1cccc(Cl)c1NC1=NCCN1 class_assignment=NO
molecule=CCCc1nc2c(C)cc(-c3nc4ccccc4n3C)cc2n1Cc1ccc(-c2ccccc2C(=O)O)cc1 class_assignment=YES

Request: Record request — test call for CCOC(=O)C1=C[C@]2(CC)CCCN3CCc4c(n1c1ccccc41)[C@@H]32
Result: YES

Request: Record request — test call for CN1CCN(CCCN2c3ccccc3Sc3ccc(C(F)(F)F)cc32)CC1
Result: YES

Request: Record request — test call for O=C1CCC(N2C(=O)c3ccccc3C2=O)C(=O)N1 (stereo not drawn)
Result: NO

Request: Record request — test call for O=c1[nH]cnc2[nH]ncc12
Result: NO

Request: Record request — test call for O=c1n(CCCN2CCN(c3cccc(Cl)c3)CC2)nc2ccccn12
Result: NO

Request: Record request — test call for CC(C[N+](C)(C)C)OC(N)=O (stereo not drawn)
Result: NO
